System: HCV genotype 1b replicon in Huh 7 cells
Experiment: HCV replicon assay (1b_Huh-Luc/Neo-ET cell line, luciferase readout)
Format: cell-based
Details: Hepatitis C virus, Huh-7; HCV 1b replicon; read-out: Inhibition of HCV genotype 1b
reported metric: EC50

Challenge: Which measured EC50 belongs to `COC(=O)N[C@H](C(=O)N1CCC[C@H]1CNC(=O)c1ccc(-c2ccc3cc(-c4cnc([C@@H]5CCCN5C(=O)[C@@H](NC(=O)OC)[C@@H](C)OC)[nH]4)ccc3c2)cc1)[C@@H](C)OC` , tested on HCV genotype 1b replicon in Huh 7 cells?
Response given: < 1 nM

New cases:
Challenge: Which measured EC50 belongs to `COC(=O)N[C@H](C(=O)N1CCC[C@H]1CNC(=O)c1cnc2cc(-c3ccc4c(ccc5nc([C@@H]6CCCN6C(=O)[C@@H](NC(=O)OC)C(C)C)[nH]c54)c3)ccc2c1)C(C)C` , tested on HCV genotype 1b replicon in Huh 7 cells?
Response given: 1 to 9.9 nM

Challenge: Which measured EC50 belongs to `COC(=O)N[C@H](C(=O)N1CCC[C@H]1C(=O)Nc1ccc(-c2ccc3cc(-c4cnc([C@@H]5CCCN5C(=O)[C@@H](NC(=O)OC)C(C)C)[nH]4)ccc3n2)cc1)C(C)C` , tested on HCV genotype 1b replicon in Huh 7 cells?
Response given: 1 to 9.9 nM

Challenge: Which measured EC50 belongs to `COC(=O)N[C@@H](C(=O)N1CCC[C@H]1C(=O)Nc1ccc(-c2ccc3cc(-c4cnc([C@@H]5CCCN5C(=O)[C@H](NC(=O)OC)c5ccccc5)[nH]4)ccc3n2)cc1)c1ccccc1` , tested on HCV genotype 1b replicon in Huh 7 cells?
Response given: < 1 nM

====

EC50 for assorted compounds
Test system: HCV genotype 1b replicon in Huh 7 cells
Assay: HCV replicon assay (1b_Huh-Luc/Neo-ET cell line, luciferase readout)
Assay type: cell-based
Conditions: Hepatitis C virus, Huh-7; HCV 1b replicon; read-out: Inhibition of HCV genotype 1b

Challenge: I would be grateful if you could share the reported EC50 for `COC(=O)N[C@H](C(=O)N1CCC[C@H]1C(=O)N[C@H](C)c1ccc(-c2ccc3cc(-c4cnc([C@@H]5CCCN5C(=O)[C@@H](NC(=O)OC)C5CCOCC5)[nH]4)ccc3c2)cc1)C1CCOCC1` .
Response given: 1 to 9.9 nM

New cases:
Challenge: I would be grateful if you could share the reported EC50 for `CC[C@H](C)[C@H](NC(=O)OC)C(=O)N1CCC[C@H]1c1nc2ccc(-c3ccc4cc(-c5cnc([C@@H]6CCCN6C(=O)[C@@H](NC(=O)OC)[C@@H](C)OC)[nH]5)ccc4c3)nc2[nH]1` .
Response given: < 1 nM

====

Test system: HCV genotype 1b replicon in Huh 7 cells
Experiment: HCV replicon assay (1b_Huh-Luc/Neo-ET cell line, luciferase readout)
Assay type: cell-based
Details: Hepatitis C virus; Table 2; genotype 1b replicon, Huh 7 cells, 72 h, luciferase; read-out: Inhibition of HCV genotype 1b
EC50 for assorted compounds

Challenge: I would be grateful if you could share the reported EC50 for COC(=O)N[C@H](C(=O)N1CCC[C@H]1c1ncc(-c2ccc3nc(-c4ccc5nc([C@@H]6CCCN6C(=O)[C@@H](NC(=O)OC)C6CC6)[nH]c5c4)ccc3c2)[nH]1)C1CC1 [compound 385] .
Response given: < 1 nM

Challenge: I would be grateful if you could share the reported EC50 for CC[C@@H](C)[C@H](NC(=O)OC)C(=O)N1CCC[C@H]1c1ncc(-c2ccc3cc(-c4cnc5nc([C@@H]6CCCN6C(=O)[C@@H](NC(=O)OC)[C@H](C)CC)[nH]c5c4)ccc3c2)[nH]1 [compound 405] .
Response given: < 1 nM

Would you kindly look at the next entry?
Challenge: I would be grateful if you could share the reported EC50 for COC(=O)N[C@H](C(=O)N1CCC[C@H]1c1ncc(-c2ccc3nc(-c4ccc5nc([C@@H]6CCCN6C(=O)[C@@H](NC(=O)OC)[C@@H](C)OC)[nH]c5c4)ccc3c2)[nH]1)[C@@H](C)OC [compound 386] .
Response given: < 1 nM

Cited source: patent US8877707B2
